Target: MMP-13CD (catalytic domain of collagenase-3) (Homo sapiens, UniProt P45452)
Assay: Thiopeptolide substrate hydrolysis inhibition assay, MMP-13CD
Format: biochemical
Conditions: Table I; thiopeptolide substrate, HEPES pH 7.0, 22° C.; read-out: MMP-13CD IC50

>  <molecule>
CC/C=C/Cn1c(=O)c2cc(C(=O)NCc3cccc(OC)c3)sc2n(C)c1=O

>  <relation>
=

>  <IC50 [nM]>
270

$$$$
>  <molecule>
Cn1c(=O)n(CCS(=O)(=O)c2ccc(Cl)cc2)c(=O)c2cc(C(=O)OCc3ccccc3)sc21

>  <relation>
=

>  <IC50 [nM]>
3

$$$$
>  <molecule>
Cc1ccc(CCNC(=O)c2cc3c(=O)n(Cc4ccccc4)c(=O)n(C)c3s2)c(C)c1

>  <relation>
>

>  <IC50 [nM]>
100000

$$$$
>  <molecule>
COc1cccc(CNC(=O)c2cc3c(=O)n(CC(=O)C(CC(=O)OC(C)(C)C)NC(=O)OCc4ccccc4)c(=O)n(C)c3s2)c1 (stereo not shown)

>  <relation>
=

>  <IC50 [nM]>
30000

$$$$

---

Molecular target: MMP-13CD (catalytic domain of collagenase-3) (Homo sapiens)
Test: Thiopeptolide substrate hydrolysis inhibition assay, MMP-13CD
Type: biochemical
Settings: Table I; thiopeptolide substrate, HEPES pH 7.0, 22° C.; read-out: MMP-13CD IC50
Would you mind sorting the entries by IC50 according to these classes? low group (below 80 nM), middle group (80 nM to below 5000 nM), high group (5000 nM or more)

>  <molecule>
CCOc1cccc(CCNC(=O)c2cc3c(=O)n(Cc4ccccc4)c(=O)n(C)c3s2)c1 [Example 327]

>  <assigned-label>
middle group

$$$$
>  <molecule>
COc1cccc(CNC(=O)c2cc3c(=O)[nH]c(=O)n(C)c3s2)c1 [Example 218]

>  <assigned-label>
high group

$$$$
>  <molecule>
Cn1c(=O)n(Cc2cccnc2)c(=O)c2cc(C(=O)OCc3ccccc3)sc21 [Example 125]

>  <assigned-label>
middle group

$$$$
>  <molecule>
Cc1ccccc1CNC(=O)c1cc2c(=O)n(Cc3ccccc3)c(=O)n(C)c2s1 [Example 337]

>  <assigned-label>
high group

$$$$
>  <molecule>
COc1ccc(CNC(=O)c2cc3c(=O)n(CC[C@@H](C)CCC=C(C)C)c(=O)n(C)c3s2)cc1 [Example 255]

>  <assigned-label>
high group

$$$$
>  <molecule>
Cn1c(=O)n(CCCN)c(=O)c2cc(C(=O)OCc3ccccc3)sc21 [Example 116]

>  <assigned-label>
high group

$$$$
>  <molecule>
CCCCCC#CCn1c(=O)c2cc(C(=O)NCc3ccc(OC)cc3)sc2n(C)c1=O [Example 230]

>  <assigned-label>
low group

$$$$
>  <molecule>
COc1cccc(CNC(=O)c2cc3c(=O)n(Cc4cnc(C)s4)c(=O)n(C)c3s2)c1 [Example 86]

>  <assigned-label>
middle group

$$$$
>  <molecule>
Cn1c(=O)n(Cc2ccc(-c3nnn[nH]3)cc2)c(=O)c2cc(C(=O)NCc3ccc(F)cc3)sc21 [Example 87]

>  <assigned-label>
low group

$$$$
>  <molecule>
Cn1c(=O)n(Cc2ccncc2)c(=O)c2cc(C(=O)OCc3ccccc3)sc21 [Example 308]

>  <assigned-label>
low group

$$$$
>  <molecule>
COC(=O)C1(c2ccc(Cn3c(=O)c4cc(C(=O)NCc5cccc(OC)c5)sc4n(C)c3=O)cc2)CC1 [Example 92]

>  <assigned-label>
low group

$$$$
>  <molecule>
Cn1c(=O)n(Cc2ccccc2)c(=O)c2cc(C(=O)OCCc3ccccn3)sc21 [Example 206]

>  <assigned-label>
high group

$$$$
>  <molecule>
COc1ccc(CNC(=O)c2cc3c(=O)n(CCSc4ccccc4)c(=O)n(C)c3s2)cc1 [Example 261]

>  <assigned-label>
middle group

$$$$
>  <molecule>
COc1cccc(COC(=O)c2cc3c(=O)n(Cc4ccc(C#N)cc4)c(=O)[nH]c3s2)c1 [Example 66]

>  <assigned-label>
low group

$$$$
>  <molecule>
C=C(C)Cn1c(=O)c2cc(C(=O)NCc3cccc(OC)c3)sc2n(C)c1=O [Example 289]

>  <assigned-label>
middle group

$$$$
>  <molecule>
Cn1c(=O)n(Cc2ccccc2)c(=O)c2cc(C(=O)OCCN3CCCC3)sc21 [Example 175]

>  <assigned-label>
high group

$$$$

---

Sequence of the target: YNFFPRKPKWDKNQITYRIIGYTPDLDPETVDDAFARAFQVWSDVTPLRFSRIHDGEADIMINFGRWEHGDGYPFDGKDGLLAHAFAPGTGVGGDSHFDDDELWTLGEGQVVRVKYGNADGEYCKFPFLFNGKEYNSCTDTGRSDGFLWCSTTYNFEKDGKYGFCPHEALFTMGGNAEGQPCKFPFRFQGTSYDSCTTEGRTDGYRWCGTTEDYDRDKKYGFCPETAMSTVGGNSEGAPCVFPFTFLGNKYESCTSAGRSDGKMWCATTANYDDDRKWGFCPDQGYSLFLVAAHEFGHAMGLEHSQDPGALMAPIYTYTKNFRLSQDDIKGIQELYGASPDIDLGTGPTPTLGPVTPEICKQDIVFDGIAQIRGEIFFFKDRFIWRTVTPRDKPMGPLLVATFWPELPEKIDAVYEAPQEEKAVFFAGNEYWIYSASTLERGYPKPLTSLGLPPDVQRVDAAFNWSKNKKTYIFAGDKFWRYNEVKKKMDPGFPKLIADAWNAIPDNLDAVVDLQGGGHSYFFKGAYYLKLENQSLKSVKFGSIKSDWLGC
assay-metric: IC50 (µM)

>  <molecule>
COc1ccc(CNC(=O)c2cc3c(=O)n(CCOc4ccc(Br)cc4)c(=O)n(C)c3s2)cc1

>  <unit-abbrev>
µM

>  <observed>
30

$$$$
>  <molecule>
COc1ccc(CNC(=O)c2cc3c(=O)n(Cc4cccc(OC)c4)c(=O)n(C)c3s2)cc1

>  <unit-abbrev>
µM

>  <observed>
30

$$$$
>  <molecule>
COC(=O)c1ccc(Cn2c(=O)c3cc(C(=O)NCc4ccc(OC)cc4)sc3n(C)c2=O)cc1OC

>  <unit-abbrev>
µM

>  <observed>
30

$$$$
>  <molecule>
CCCCNC(=O)NS(=O)(=O)c1ccc(Cn2c(=O)c3cc(C(=O)NCc4cccc(OC)c4)sc3n(C)c2=O)cc1 [Example 231a]

>  <unit-abbrev>
µM

>  <observed>
50

$$$$

---

Biological target: MMP-13CD (catalytic domain of collagenase-3) (Homo sapiens)
Assay: Thiopeptolide substrate hydrolysis inhibition assay, MMP-13CD
Format: biochemical
Conditions: Table I; thiopeptolide substrate, HEPES pH 7.0, 22° C.; read-out: MMP-13CD IC50
Source text: Thiopeptolide substrates show virtually no decomposition or hydrolysis at or below neutral pH in the absence of a matrix metalloproteinase enzyme.
assay-metric: IC50

>  <compound>
C=CCCOC(=O)c1cc2c(=O)n(Cc3ccccc3)c(=O)n(C)c2s1

>  <assay-metric>
IC50

>  <observed>
100 nM

$$$$
>  <compound>
C=CCCCCn1c(=O)c2cc(C(=O)OCc3ccccc3)sc2n(C)c1=O

>  <assay-metric>
IC50

>  <observed>
110 nM

$$$$
>  <compound>
CCCCC(CC)Cn1c(=O)c2cc(C(=O)NCc3cccc(OC)c3)sc2n(C)c1=O (stereo not drawn)

>  <assay-metric>
IC50

>  <observed>
8900 nM

$$$$
>  <compound>
COc1cccc(CNC(=O)c2cc3c(=O)n(Cc4ccc5nonc5c4)c(=O)n(C)c3s2)c1

>  <assay-metric>
IC50

>  <observed>
50.5 nM

$$$$
>  <compound>
Cn1c(=O)n(Cc2ccc(F)cc2)c(=O)c2cc(C(=O)OCc3ccccc3)sc21

>  <assay-metric>
IC50

>  <observed>
15 nM

$$$$
>  <compound>
COc1ccc(CNC(=O)c2cc3c(=O)n(CCC(=O)c4ccc(Cl)cc4)c(=O)n(C)c3s2)cc1

>  <assay-metric>
IC50

>  <observed>
5900 nM

$$$$
>  <compound>
Cn1c(=O)n(Cc2ccccc2)c(=O)c2cc(C(=O)NCCc3ccncc3)sc21

>  <assay-metric>
IC50

>  <observed>
> 100000 nM

$$$$
>  <compound>
Cc1cc(Cn2c(=O)c3cc(C(=O)NCc4cccc(O)c4)sc3n(C)c2=O)ccc1C(=O)O

>  <assay-metric>
IC50

>  <observed>
7.65 nM

$$$$
>  <compound>
Cn1c(=O)n(Cc2ccccc2)c(=O)c2cc(C(=O)OCc3ccc4occc4c3)sc21

>  <assay-metric>
IC50

>  <observed>
18.5 nM

$$$$

---

pIC50 for assorted compounds
Biological target: MMP-13CD (catalytic domain of collagenase-3) (Homo sapiens, UniProt P45452)
Test: Thiopeptolide substrate hydrolysis inhibition assay, MMP-13CD
Type: biochemical
Details: Table I; thiopeptolide substrate, HEPES pH 7.0, 22° C.; read-out: MMP-13CD IC50
pIC50: −log10 of the molar value.
assay-metric: pIC50

>  <sample-smiles>
COc1cccc(CNC(=O)c2cc3c(=O)n(Cc4ccccc4)c(=O)n(C)c3s2)c1OC

>  <relation>
<

>  <observed>
4.00

$$$$
>  <sample-smiles>
Cn1c(=O)n(Cc2ccccc2)c(=O)c2cc(C(=O)OCc3cccc(Oc4ccccc4)c3)sc21

>  <relation>
=

>  <observed>
5.07

$$$$
>  <sample-smiles>
COc1cccc(CNC(=O)c2cc3c(=O)n(CC4CCCCC4)c(=O)n(C)c3s2)c1

>  <relation>
=

>  <observed>
7.24

$$$$
>  <sample-smiles>
COc1ccc(CNC(=O)c2cc3c(=O)n(Cc4ccccc4)c(=O)n(C)c3s2)cc1OC

>  <relation>
<

>  <observed>
4.00

$$$$
>  <sample-smiles>
COc1ccc(CNC(=O)c2cc3c(=O)n(Cc4ccc(C#N)cc4)c(=O)n(C)c3s2)cc1

>  <relation>
=

>  <observed>
7.21

$$$$
>  <sample-smiles>
COc1cccc(CNC(=O)c2cc3c(=O)n(CCN)c(=O)n(C)c3s2)c1

>  <relation>
=

>  <observed>
4.62

$$$$

Source of measurements: patent US20030004172A1
